These data points were gathered from ChEMBL document CHEMBL3085764.

System: HeLa
Test: Cytotoxicity against human HeLa cells after 5 hrs by LDH assay
Below is a list of entries, each paired with its recorded IC50 value.
Please state the figure in µg/mL; there is no need to write the unit.

Worked examples follow.
* CCCCCCCCCc1ccc(OCCOCCOCCOCCOCCOCCOCCOCCOCCO)cc1 | 37
* CCCCSC(=S)n1ccnc1 | 48.7
* CCCCSC(=S)n1ccnc1C | 85.5

API: the following record is the query input.
Inquiry: Given the compound CSC(=S)n1cncn1 , what is its reported IC50?
Reply text: 53.7

---

Assay: Spermicidal activity in human semen assessed as sperm immobilization at 0.1 % w/v up to 30 seconds by phase contrast microscopy
Assay type: functional
Items are presented alongside their recorded Activity.
Hi! Could you send only the number? It should be in %, unit omitted.

• N#CCCCSC(=S)n1cnc2ccccc21 = 0
• CCCCCCCCSC(=S)n1cnc2ccccc21 = 0
• Cn1nnc2ccccc21 = 0
• CCCCCCCCSC(=S)n1ccnc1C = 100
• N#CCCCSC(=S)n1ccnc1 = 92
• CCCCSC(=S)n1cnc2ccccc21 = 0

Inquiry: Which value of Activity has been reported for CCCCCCCCCCCCCCCCSC(=S)n1ccnc1 in the records?
Reply text: 0

---

Catalogue of Activity readings, one per entry.
Assay: Spermicidal activity in human semen assessed as sperm immobilization at 0.1 % w/v up to 30 seconds by phase contrast microscopy
Type: functional

Solved entries:
* Cc1nccn1C(=S)SCCCC#N | 0%
* CCCCSC(=S)n1ccnc1C | 0%
* Cc1ncc([N+](=O)[O-])n1CCO | 0%

Inquiry: Return reported Activity; argument: CCCCSC(=S)n1ccnc1
Reply text: 80%

Inquiry: # repeat for CSC(=S)n1ccnc1C
Reply text: 0%

Inquiry: Would you kindly repeat that for O=C1c2ccccc2C(=O)N1CCSC(=S)n1ccnc1 ?
Reply text: 0%

Inquiry: Next record, please: C=CCSC(=S)n1ccnc1
Reply text: 0%

Inquiry: Same question for C=CCSC(=S)n1ccnc1C please.
Reply text: 0%

Inquiry: Field entry: C=CCSC(=S)n1cncn1
Reply text: 0%

Inquiry: Another: CCCCCCCCCCCCCCCCSC(=S)n1ccnc1C
Reply text: 0%

Inquiry: And C=CCSC(=S)n1cnc2ccccc21 ?
Reply text: 0%

Inquiry: Follow-up item: CCCCCCCCCc1ccc(OCCOCCOCCOCCOCCOCCOCCOCCOCCO)cc1
Reply text: 100%

Inquiry: // same read-out, input: CSC(=S)n1ccnc1
Reply text: 0%

Inquiry: Now the compound CSC(=S)n1cncn1
Reply text: 0%

Inquiry: Please give the result for CCCCCCCCSC(=S)n1ccnc1 too.
Reply text: 80%

---

System: Candida albicans
Assay: Antifungal activity against Candida albicans after 48 hrs by broth microdilution technique
Type: functional, organism-based
Rule for this label: Fulfilled means IC50 is less than 6 µg/mL; Not fulfilled means IC50 is at least 6 µg/mL.

Please review the following examples before continuing.
- O=C1c2ccccc2C(=O)N1CCSC(=S)n1ccnc1: Fulfilled
- C=CCSC(=S)n1ccnc1C: Fulfilled
- CCCCCCCCCCCCCCCCSC(=S)n1ccnc1C: Not fulfilled
- CSC(=S)n1ccnc1: Fulfilled
- CSC(=S)n1cncn1: Fulfilled
- CCCCCCCCSC(=S)n1cnc2ccccc21: Not fulfilled
- N#CCCCSC(=S)n1ccnc1: Not fulfilled
- CCCCSC(=S)n1ccnc1C: Fulfilled
- N#CCCCSC(=S)n1cnc2ccccc21: Not fulfilled
- C=CCSC(=S)n1ccnc1: Not fulfilled

Inquiry: I wonder whether C=CCSC(=S)n1cncn1 has IC50 below 6 µg/mL. Can you tell?
Reply text: Fulfilled

Inquiry: Same question for CCCCCCCCSC(=S)n1ccnc1 please.
Reply text: Fulfilled
